Tested on: 422866-222-R5-J1-PDC complex spheroid viability;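 further: spheroids exposed to compounds for one week before readout; percent of DMSO vehicle wells luminescence so 100% = untreated viability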
Assay details: Anticancer human tumor 422866-222-R5-J1-PDC patient-derived pancreatic adenocarcinoma cell line growth inhibition [POLQ]
Test context: second compound 0.0316 µM; first compound 3.16 µM; stronger effect = lower value
Below is a list of entries, each paired with its recorded viability, T/C value.

Compound	Target or system	viability, T/C / %
CNCc1ccc(-c2[nH]c3cc(F)cc4c3c2CCNC4=O)cc1 + Cc1cccc(N(C)C(=O)C2C(O)CCN2c2nc(C)cc(C(F)(F)F)c2C#N)c1	422866-222-R5-J1-PDC complex spheroid viability	89.6
CNCc1ccc(-c2[nH]c3cc(F)cc4c3c2CCNC4=O)cc1 + COC1C(OC(N)=O)C(O)C(Oc2ccc3c(O)c(NC(=O)c4ccc(O)c(CC=C(C)C)c4)c(=O)oc3c2C)OC1(C)C	422866-222-R5-J1-PDC complex spheroid viability	83.4
O=C(Nc1ccc(O)c(NS(=O)(=O)c2ccc(F)cc2)c1)c1ccc(-c2ccccc2)cc1 + Cc1cccc(N(C)C(=O)C2C(O)CCN2c2nc(C)cc(C(F)(F)F)c2C#N)c1	422866-222-R5-J1-PDC complex spheroid viability	99.8
O=c1[nH]cc(F)c(=O)[nH]1 + Nc1ccc(C#CCN(C(=O)Cc2ncc(C(F)(F)F)cc2C(F)(F)F)c2ccc(F)cc2)nn1	422866-222-R5-J1-PDC complex spheroid viability	89.1
C#Cc1c(F)ccc2cc(O)cc(-c3ncc4c(N5CC6CCC(C5)N6)nc(OCC56CCCN5CC(F)C6)nc4c3F)c12 (stereo unspecified) + Nc1ccc(C#CCN(C(=O)Cc2ncc(C(F)(F)F)cc2C(F)(F)F)c2ccc(F)cc2)nn1	422866-222-R5-J1-PDC complex spheroid viability	26.8
C=CC(=O)N1CCN(c2nc(=O)n(-c3c(C)ccnc3C(C)C)c3nc(-c4c(O)cccc4F)c(F)cc23)C(C)C1 (stereo unspecified) + Cc1cccc(N(C)C(=O)C2C(O)CCN2c2nc(C)cc(C(F)(F)F)c2C#N)c1	422866-222-R5-J1-PDC complex spheroid viability	23.5
O=C(c1cc(Cc2n[nH]c(=O)c3ccccc23)ccc1F)N1CCN(C(=O)C2CC2)CC1 + Nc1ccc(C#CCN(C(=O)Cc2ncc(C(F)(F)F)cc2C(F)(F)F)c2ccc(F)cc2)nn1	422866-222-R5-J1-PDC complex spheroid viability	72.8
CNCc1ccc(-c2[nH]c3cc(F)cc4c3c2CCNC4=O)cc1 + Nc1ccc(C#CCN(C(=O)Cc2ncc(C(F)(F)F)cc2C(F)(F)F)c2ccc(F)cc2)nn1	422866-222-R5-J1-PDC complex spheroid viability	78.8
O=C(c1cc(Cc2n[nH]c(=O)c3ccccc23)ccc1F)N1CCN(C(=O)C2CC2)CC1 + COC1C(OC(N)=O)C(O)C(Oc2ccc3c(O)c(NC(=O)c4ccc(O)c(CC=C(C)C)c4)c(=O)oc3c2C)OC1(C)C	422866-222-R5-J1-PDC complex spheroid viability	34
CC1COCCN1c1cc(-c2ccnn2C)c2ccnc(-c3ccn[nH]3)c2n1 (stereo unspecified) + Cc1cccc(N(C)C(=O)C2C(O)CCN2c2nc(C)cc(C(F)(F)F)c2C#N)c1	422866-222-R5-J1-PDC complex spheroid viability	72.3
CC1COCCN1c1cc(C2(O)CC3CCC(C2)O3)c2cnn(-c3ccn[nH]3)c2n1 (stereo unspecified) + Nc1ccc(C#CCN(C(=O)Cc2ncc(C(F)(F)F)cc2C(F)(F)F)c2ccc(F)cc2)nn1	422866-222-R5-J1-PDC complex spheroid viability	73.5
